- measuredTarget: LXRβ (Homo sapiens, UniProt P55055)
- Construct: Co-transfection expression plasmids, comprising full-length LXRα (pCMX-h LXRα[…] or LXRβ (pCMX-hLXRβ))
- Sequence (P55055 whole entry): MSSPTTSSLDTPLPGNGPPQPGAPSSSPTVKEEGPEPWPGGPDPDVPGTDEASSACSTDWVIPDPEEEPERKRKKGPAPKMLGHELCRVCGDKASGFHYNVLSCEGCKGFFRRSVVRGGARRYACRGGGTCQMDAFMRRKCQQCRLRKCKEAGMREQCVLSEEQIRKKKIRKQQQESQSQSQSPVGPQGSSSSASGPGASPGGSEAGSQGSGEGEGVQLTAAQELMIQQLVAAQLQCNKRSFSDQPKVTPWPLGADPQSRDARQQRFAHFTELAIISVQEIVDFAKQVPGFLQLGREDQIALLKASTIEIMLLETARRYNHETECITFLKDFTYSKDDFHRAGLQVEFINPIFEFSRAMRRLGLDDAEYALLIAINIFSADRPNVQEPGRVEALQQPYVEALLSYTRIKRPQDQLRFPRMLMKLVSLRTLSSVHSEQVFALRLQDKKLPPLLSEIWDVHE
- Sequence (P19793 whole entry partner): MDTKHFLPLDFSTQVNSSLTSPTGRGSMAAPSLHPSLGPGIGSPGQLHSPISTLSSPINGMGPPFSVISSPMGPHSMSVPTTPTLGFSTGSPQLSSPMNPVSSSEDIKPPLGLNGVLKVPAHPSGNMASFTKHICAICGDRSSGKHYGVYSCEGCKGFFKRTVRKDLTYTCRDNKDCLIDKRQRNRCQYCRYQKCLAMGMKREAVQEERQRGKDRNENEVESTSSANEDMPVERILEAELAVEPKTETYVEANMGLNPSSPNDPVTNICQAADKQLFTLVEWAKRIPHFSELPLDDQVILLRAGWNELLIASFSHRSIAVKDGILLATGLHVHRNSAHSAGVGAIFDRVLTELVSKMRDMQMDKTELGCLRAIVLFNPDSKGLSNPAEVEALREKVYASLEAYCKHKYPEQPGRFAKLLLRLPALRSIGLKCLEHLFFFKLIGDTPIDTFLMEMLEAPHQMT
- runDescription: Co-transfection assay (LXRE luciferase reporter), LXRβ
- statedConditions: CV-1 cells transfected with pCMX-hLXRβ and LXREx1-Tk-Luciferase; 20 hours incubation
pEC50: −log10 of the molar value.
Binned pEC50; ranges: low-valued (below 6), mid-valued (6 to below 7), high-valued (7 or more)

Req: Consider "Cc1nc(-c2cc(-c3cccc(S(C)(=O)=O)c3)ccc2-n2cc(C(F)(F)F)nc2C)c(-c2ccc(F)c(OC(F)F)c2)o1" . To which pEC50 class does it belong?
Resp: mid-valued

Req: Consider "CCCc1nc(-c2cc(-c3cc(F)c(CO)c(S(C)(=O)=O)c3)ccc2-n2cc(C(F)(F)F)nc2C)c(-c2ccc(OC(F)(F)F)cc2)o1" . To which pEC50 class does it belong?
Resp: high-valued

Req: Consider "Cc1nc(-c2cc(-c3cc(F)c(CO)c(S(C)(=O)=O)c3)ccc2-n2cc(Cl)nc2C)c(-c2ccc3c(c2)OC(F)(F)O3)o1" . To which pEC50 class does it belong?
Resp: high-valued

Req: Consider "Cc1nc(-c2cc(-c3cc(F)c(CO)c(S(C)(=O)=O)c3)ccc2-n2cc(C(F)(F)F)nc2C)c(-c2cccnc2OC(F)F)o1" . To which pEC50 class does it belong?
Resp: mid-valued

Req: Consider "Cc1nc(-c2cc(-c3cc(F)c(CO)c(S(C)(=O)=O)c3)ccc2-n2cc(C(F)(F)F)nc2C)c(-c2ccc(F)cc2F)o1" . To which pEC50 class does it belong?
Resp: high-valued

Req: Consider "CCS(=O)(=O)c1cccc(-c2ccc(-n3cc(C(F)F)nc3C)c(-c3cnnn3Cc3ccc(Cl)cc3)c2)c1" . To which pEC50 class does it belong?
Resp: mid-valued

Req: Consider "CS(=O)(=O)c1cccc(-c2cc(F)c(-n3cnc(C(F)(F)F)c3)c(-n3nncc3-c3ccc(OC(F)(F)F)cc3)c2)c1" . To which pEC50 class does it belong?
Resp: low-valued

Req: Consider "CCOc1ncc(-c2oc(C)nc2-c2cc(-c3cccc(S(C)(=O)=O)c3)ccc2-n2cc(C(F)(F)F)nc2C)cc1F" . To which pEC50 class does it belong?
Resp: mid-valued

Req: Consider "Cc1nc(C(F)F)c(C)n1-c1ccc(-c2cccc(S(C)(=O)=O)c2)cc1-n1nncc1-c1ccc(Cl)cc1" . To which pEC50 class does it belong?
Resp: low-valued

Req: Consider "CS(=O)(=O)c1cccc(-c2cc(F)c(-n3cnc(C(F)(F)F)c3)c(-n3nncc3-c3ccc(Cl)cc3)c2)c1" . To which pEC50 class does it belong?
Resp: mid-valued

Req: Consider "Cc1nc(-c2cc(-c3cccc(S(C)(=O)=O)c3)ccc2-n2cc(C(F)(F)F)nc2C)c(-c2ccc3c(c2)OC(F)(F)O3)o1" . To which pEC50 class does it belong?
Resp: high-valued

---

- measuredTarget: LXRβ (Homo sapiens)
- Construct: Co-transfection expression plasmids, comprising full-length LXRα (pCMX-h LXRα[…] or LXRβ (pCMX-hLXRβ)); expressed in transfected cells; host or cells: CV-1 African Green Monkey Kidney Cells
- runDescription: Co-transfection assay (LXRE luciferase reporter), LXRβ
- Assay type: cell-based
- statedConditions: LXRβ co-transfection; relative to high control 1-(2,4-difluorobenzyl)-2-oxo-6-(4-phenoxyphenyl)-4-(trifluoromethyl)-1,2-dihydropyridine-3-carbonitrile; read-out: % Efficacy
Label key: t means Emax under 80%; f means Emax of 80% or more.

Req: Quick check: Emax of "CCC(F)(F)c1cn(-c2ccc(-c3cccc(S(N)(=O)=O)c3)cc2-n2nncc2-c2ccc(OC(F)(F)F)cc2)c(C)n1" under 80%?
Resp: t

Req: Quick check: Emax of "Cc1nc(C(F)(F)F)cn1-c1c(F)cc(-c2cccc(S(=O)(=O)NCCO)c2)cc1-n1nncc1-c1ccc(OC(F)(F)F)cc1" under 80%?
Resp: t

Req: Quick check: Emax of "Cc1nc(C(F)(F)F)cn1-c1ccc(-c2cccc(S(C)(=O)=O)c2)cc1-c1nc(C2CC2)cn1-c1ccc(Cl)cc1" under 80%?
Resp: t

Req: Quick check: Emax of "Cc1nc(C(F)(F)F)cn1-c1ccc(-c2cccc(S(C)(=O)=O)c2)cc1-n1nncc1-c1ccc(SC(F)(F)F)cc1" under 80%?
Resp: f

Req: Quick check: Emax of "Cc1nc(-c2cc(-c3cccc(S(C)(=O)=O)c3)ccc2-n2cc(C(F)(F)F)nc2C)c(-c2ccc(OC(F)F)cc2Cl)o1" under 80%?
Resp: t

Req: Quick check: Emax of "Cc1nc(C(N)=O)cn1-c1ccc(-c2cccc(S(C)(=O)=O)c2)cc1-c1nc(C2CC2)oc1-c1ccc2c(c1)OC(F)(F)O2" under 80%?
Resp: t

Req: Quick check: Emax of "Cc1nc(-c2cc(-c3cc(F)c(CO)c(S(C)(=O)=O)c3)ccc2-n2cc(C(F)(F)F)nc2C)c(-c2ccc3ccccc3c2)o1" under 80%?
Resp: t

Req: Quick check: Emax of "COc1ccc(-c2cnnn2-c2cc(-c3cccc(S(C)(=O)=O)c3)ccc2-n2cc(C(F)(F)F)nc2C)c(OC)c1" under 80%?
Resp: t

Req: Quick check: Emax of "Cc1nc(-c2cc(-c3cccc(S(C)(=O)=O)c3)ccc2-n2cc(CO)nc2C)c(-c2ccc3c(c2)OC(F)(F)O3)o1" under 80%?
Resp: t

Req: Quick check: Emax of Cc1nc(C(F)F)cn1-c1ccc(-c2cc(F)c(CO)c(S(C)(=O)=O)c2)cc1-n1nncc1C(C)c1ccc(Cl)cc1 (stereo not shown) under 80%?
Resp: t

Req: Quick check: Emax of "Cc1nc(-c2cc(-c3ccc(CO)c(S(C)(=O)=O)c3)ccc2-n2cc(C(F)(F)F)nc2C)c(-c2ccc(OC(F)(F)F)cc2)o1" under 80%?
Resp: f

Req: Quick check: Emax of Cc1nc(C(F)(F)F)cn1-c1ccc(-c2cccc(S(C)(=O)=O)c2)cc1-c1nc(C(C)CO)oc1-c1ccc(OC(F)(F)F)cc1 (stereo not shown) under 80%?
Resp: t

---

Kindly state EC50 for each of the entries shown.
- measuredTarget: LXRβ (Homo sapiens, UniProt P55055)
- Construct: Co-transfection expression plasmids, comprising full-length LXRα (pCMX-h LXRα[…] or LXRβ (pCMX-hLXRβ)); expressed in transfected cells; host or cells: CV-1 African Green Monkey Kidney Cells
- runDescription: Co-transfection assay (LXRE luciferase reporter), LXRβ
- Assay type: cell-based
- statedConditions: CV-1 cells transfected with pCMX-hLXRβ and LXREx1-Tk-Luciferase; 20 hours incubation
Report only the number, with the unit nM understood.

Req: Value lookup for EC50; key = Cc1nc(C(F)(F)F)cn1-c1ccc(-c2cccc(S(C)(=O)=O)c2)cc1-n1nncc1-c1ccc(OC(F)(F)F)cc1 [Example 49]
Resp: 164

Req: Value lookup for EC50; key = Cc1nc(C(F)(F)F)cn1-c1ccc(-c2cc(Cl)c(CO)c(S(C)(=O)=O)c2)cc1-n1nncc1-c1ccc(Cl)cc1Cl [Example 18]
Resp: 283

Req: Value lookup for EC50; key = Cc1nc(-c2cc(-c3cc(F)c(CO)c(S(C)(=O)=O)c3)ccc2-n2cc(C(F)(F)F)nc2C)c(-c2ccc3c(c2)CC(C)(C)O3)o1 [Example 420]
Resp: 82

Req: Value lookup for EC50; key = CS(=O)(=O)c1cc(-c2cc(Cl)c(-n3cnc(C(F)(F)F)c3)c(-n3nncc3-c3ccc(OC(F)(F)F)cc3)c2)cc(F)c1CO [Example 193]
Resp: 598

Req: Value lookup for EC50; key = Cc1nc(C(F)(F)F)cn1-c1ccc(-c2cccc(S(C)(=O)=O)c2)cc1-c1nc(C2CC2)cn1-c1ccc(Cl)cc1 [Example 646]
Resp: 572

Req: Value lookup for EC50; key = Cc1nc(C(F)(F)F)cn1-c1ccc(-c2cccc(S(C)(=O)=O)c2)cc1-n1nncc1-c1ccc(Cl)cc1Cl [Example 76]
Resp: 500

The measured values listed here are drawn from patent US9834542B2.
